Each recorded value in this set is attributed to patent US20250263490A1.

# tested on: T1, recombinant human domain 1-3His6 of the cation-independent mannose-6-phosphate receptor (human, UniProt P11717 41-467)
# T1 construct: Biotinylated (NHS-PEG4-biotin) for BLI; Glycosylated; also called hDom1-3His6; hCI-M6PRD1-D3
# method notes: BLI exp 1, dissoc pH 7.4
measured endpoint: koff

Consider the following illustrative entries.
anti-CI-M6PR VHH6 (VHH, His6-tagged; made in E. coli) VHH: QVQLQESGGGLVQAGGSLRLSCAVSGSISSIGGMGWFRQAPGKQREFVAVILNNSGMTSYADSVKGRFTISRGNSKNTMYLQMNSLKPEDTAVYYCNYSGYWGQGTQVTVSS = 0.00352 s⁻¹
anti-CI-M6PR VHH10 (VHH, His6-tagged; made in Pichia pastoris) VHH: QVQLQESGGGSVQAGGSLRLSCAPAGRTFSRIRMGWFRQAPGKEREFVAAISSGGLSYYADSMKGRFTISRDNAKNTVLLQMNSLEPDDTAVYYCAAVLNDYIDDYVARNPTLYDYWGQGTQVTVSS = 0.00177 s⁻¹
anti-CI-M6PR VHH3 (VHH, His6-tagged; made in Pichia pastoris) VHH: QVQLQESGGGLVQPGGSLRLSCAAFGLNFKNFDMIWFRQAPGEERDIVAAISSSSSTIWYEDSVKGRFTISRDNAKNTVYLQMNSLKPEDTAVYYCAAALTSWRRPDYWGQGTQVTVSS = ≤ 1e-07 s⁻¹

Would you kindly look at the next entry?
**Query** // returns reported koff for input anti-CI-M6PR VHH8 (VHH, His6-tagged (Pichia pastoris)) VHH: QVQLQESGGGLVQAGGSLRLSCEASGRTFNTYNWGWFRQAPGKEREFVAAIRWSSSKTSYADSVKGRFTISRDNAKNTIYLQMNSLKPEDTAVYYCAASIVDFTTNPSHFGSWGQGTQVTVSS
**Result** 0.000787 s⁻¹
